Reported pKd values are given for each entry in this list.
Target: T1, PUF4 RNA-binding domain (Saccharomyces cerevisiae, UniProt P25339 537-888)
T1 sequence: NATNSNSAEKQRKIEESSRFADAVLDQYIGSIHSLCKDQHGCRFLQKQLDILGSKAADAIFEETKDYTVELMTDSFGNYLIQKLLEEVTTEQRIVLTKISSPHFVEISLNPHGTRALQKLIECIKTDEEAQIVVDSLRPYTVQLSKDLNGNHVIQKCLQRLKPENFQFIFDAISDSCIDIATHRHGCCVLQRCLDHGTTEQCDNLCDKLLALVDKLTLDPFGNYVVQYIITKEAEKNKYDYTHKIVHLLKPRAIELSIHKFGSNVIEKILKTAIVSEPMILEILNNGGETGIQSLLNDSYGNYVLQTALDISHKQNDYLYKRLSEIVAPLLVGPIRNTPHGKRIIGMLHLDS
Assay: Mg; RNA-MaP; 20 mM Na-HEPES pH 7.4, 30 mM KOAc, 0.75 mM MgCl2, 0.1% Tween-20, 5% glycerol, 0.1 mg/mL BSA, 2 mM DTT; 25 C; 0.0125-409.6 nM protein
Conditions: tags: N-His6-TEV cleaved; C-SNAP kept, Cy3B-labelled; label: tethered on chip by stalled RNA polymerase
pKd: −log10 of the molar value.
experimental.readout: pKd

binder="UCUCUUAAACACUUAUUACCUCUCUU (ssRNA) [Id_ii_S1_P5E.4_K5.3_C5.2_[C-2A]_[T-1A]_H5.3_A5.1_F5.1_T5.2_[T11C]_[A12C]]" qualifier_sign=< numeric_readout=5.64
binder="UCUCUUUGUACUUCCAUCUCUU (ssRNA) [Ic_S1_P5E.1_K5.1_C5.1_H5.1_A5.1_[T5C]_[A7T]_F5.1_[T8C]_[T9C]_T5.1]" qualifier_sign== numeric_readout=6.18
binder="Ic_S2_P3E.1_K3.1_C3.1_H3.1_A3.1_[T5C]_[A6T]_F3.1_[T7A]_T3.1 (ssRNA) RNA: UUUGAUUAAUAUGAUAUCGUUCUUUCUUGUACUAAUUCUUUCUCGAUAUCAUAUUAAUCUUU" qualifier_sign== numeric_readout=7.47
binder="Ib_S2_P5E.1_K5.1_C5.1_H5.1_A5.1_[T6C]_F5.1_[T8C]_T5.1 (ssRNA) RNA: UUUGAUUAAUAUGAUAUCGUUCUUUCUUGUAUCACUAUUCUUUCUCGAUAUCAUAUUAAUCUUU" qualifier_sign== numeric_readout=8.42
binder="Id_ii_S4_P5E.2_K5.1_C5.2_[C-2T]_H5.1_A5.1_F5.1_T5.2_[T11A]_[A12T] (ssRNA) RNA: UUUGACAACUGAUCGUUCUUUCUUUUGUAUUAUUAAUUUCUUUCUCGAUCAGUUGUCUUU" qualifier_sign== numeric_readout=8.66
binder="Ic_S4_P4E.1_K4.1_C4.1_H4.1_A4.1_[T5G]_[A6C]_[T7C]_F4.1_[T8C]_[A9C]_T4.1 (ssRNA) RNA: UUUGACAACUGAUCGUUCUUUCUUGUAGCCCCUUCUUUCUCGAUCAGUUGUCUUU" qualifier_sign== numeric_readout=6.10

Data origin: paper PMC9352680
